assay: Tmax in Sprague-Dawley rat at 10 mg/kg, po by UPLC/MS/MS analysis; assay type: ADME, organism-based; settings: in vivo

chemical-smiles: COc1cc(N2CCNC2=O)ccc1Nc1ncc(Cl)c(Nc2ccccc2S(=O)(=O)C(C)C)n1
reading-unit: h
Tmax: 5.1
//
chemical-smiles: Cc1cc(Nc2ncc(Cl)c(Nc3ccccc3S(=O)(=O)C(C)C)n2)c(OC(C)C)cc1C1CCNCC1
reading-unit: h
Tmax: 7.7
//
chemical-smiles: COc1cc(N2CCN(CCN(C)C)C2=O)ccc1Nc1ncc(Cl)c(Nc2ccccc2S(=O)(=O)C(C)C)n1
reading-unit: h
Tmax: 5.3

* * *

ALK tyrosine kinase receptor (Homo sapiens, UniProt Q9UM73, G1202R) measurements of IC50, listed per entry.
Sequence (Q9UM73 19-1620 G1202R limits assumed): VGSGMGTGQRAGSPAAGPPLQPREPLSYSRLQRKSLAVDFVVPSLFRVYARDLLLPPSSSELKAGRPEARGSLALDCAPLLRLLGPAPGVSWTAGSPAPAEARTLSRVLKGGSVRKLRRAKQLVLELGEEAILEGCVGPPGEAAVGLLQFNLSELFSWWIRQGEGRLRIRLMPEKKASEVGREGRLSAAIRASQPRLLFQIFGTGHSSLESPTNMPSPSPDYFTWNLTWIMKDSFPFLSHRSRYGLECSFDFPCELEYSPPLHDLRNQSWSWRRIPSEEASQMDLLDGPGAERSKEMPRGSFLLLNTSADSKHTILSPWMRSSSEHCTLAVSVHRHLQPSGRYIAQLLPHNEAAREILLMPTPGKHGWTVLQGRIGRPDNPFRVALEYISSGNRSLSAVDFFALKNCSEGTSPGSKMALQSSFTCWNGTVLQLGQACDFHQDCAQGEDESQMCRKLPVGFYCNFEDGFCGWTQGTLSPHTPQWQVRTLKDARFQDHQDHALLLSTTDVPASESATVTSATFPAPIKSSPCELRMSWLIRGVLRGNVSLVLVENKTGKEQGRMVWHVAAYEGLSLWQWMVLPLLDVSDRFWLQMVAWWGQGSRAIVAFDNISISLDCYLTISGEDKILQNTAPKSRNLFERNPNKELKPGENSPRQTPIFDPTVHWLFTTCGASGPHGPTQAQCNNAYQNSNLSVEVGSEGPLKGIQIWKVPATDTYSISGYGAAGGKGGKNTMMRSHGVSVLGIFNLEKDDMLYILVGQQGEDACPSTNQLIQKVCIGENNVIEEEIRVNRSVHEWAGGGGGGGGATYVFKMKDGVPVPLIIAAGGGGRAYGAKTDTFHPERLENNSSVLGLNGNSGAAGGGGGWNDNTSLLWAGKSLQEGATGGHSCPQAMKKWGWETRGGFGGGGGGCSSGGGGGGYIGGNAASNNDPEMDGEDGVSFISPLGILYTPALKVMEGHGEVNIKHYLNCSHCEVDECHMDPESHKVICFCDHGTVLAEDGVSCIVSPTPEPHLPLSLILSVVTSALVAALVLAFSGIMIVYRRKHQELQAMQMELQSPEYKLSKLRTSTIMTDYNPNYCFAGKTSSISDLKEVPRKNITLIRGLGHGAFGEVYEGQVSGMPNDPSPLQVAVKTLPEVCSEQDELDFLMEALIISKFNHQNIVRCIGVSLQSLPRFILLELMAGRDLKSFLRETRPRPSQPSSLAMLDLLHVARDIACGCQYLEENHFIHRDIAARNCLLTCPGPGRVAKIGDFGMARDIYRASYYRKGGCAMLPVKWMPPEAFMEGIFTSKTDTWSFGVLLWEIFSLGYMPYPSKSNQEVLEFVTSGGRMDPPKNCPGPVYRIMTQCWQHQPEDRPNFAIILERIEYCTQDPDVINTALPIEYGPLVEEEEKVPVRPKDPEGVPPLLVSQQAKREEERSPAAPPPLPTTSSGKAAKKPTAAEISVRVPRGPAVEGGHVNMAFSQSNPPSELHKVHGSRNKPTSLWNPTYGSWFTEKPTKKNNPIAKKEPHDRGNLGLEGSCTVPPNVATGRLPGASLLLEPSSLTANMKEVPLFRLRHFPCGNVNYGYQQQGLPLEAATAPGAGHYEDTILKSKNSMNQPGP

chemical-smiles: COc1cc(N2CCN(CC(=O)N(C)C)C2=O)ccc1Nc1ncc(Cl)c(Nc2ccccc2S(=O)(=O)C(C)C)n1
IC50: 23.4 nM

chemical-smiles: COc1cc(N2CCNC2=O)ccc1Nc1ncc(Cl)c(Nc2ccccc2S(=O)(=O)C(C)C)n1
IC50: 20.1 nM

chemical-smiles: COc1cc(N2CCN(CC(N)=O)C2=O)ccc1Nc1ncc(Cl)c(Nc2ccccc2S(=O)(=O)C(C)C)n1
IC50: 8.5 nM

chemical-smiles: COc1cc(N2CCN(CC(=O)N3CCN(C)CC3)C2=O)ccc1Nc1ncc(Cl)c(Nc2ccccc2S(=O)(=O)C(C)C)n1
IC50: 10.3 nM

chemical-smiles: COc1cc(N2CCN(CCN(C)C)C2=O)ccc1Nc1ncc(Cl)c(Nc2ccccc2S(=O)(=O)C(C)C)n1
IC50: 6.7 nM

chemical-smiles: COc1cc(N2CCN(CC(=O)N3CCC(=O)CC3)C2=O)ccc1Nc1ncc(Cl)c(Nc2ccccc2S(=O)(=O)C(C)C)n1
IC50: 15.6 nM

chemical-smiles: COc1cc(N2CCN(CCCN)C2=O)ccc1Nc1ncc(Cl)c(Nc2ccccc2S(=O)(=O)C(C)C)n1
IC50: 11.9 nM

Source listed as ChEMBL document CHEMBL4346688.
